Quick reference for Barr2+GRK2 hCB1 response among some molecules
target: hCB1 (Homo sapiens, UniProt P21554); assay: bioSensAll ebBRET signaling profiling, hCB1; assay type: cell-based; design: host or cells: HEK293SL cells, transient PEI transfection; conditions: Barr2+GRK2 biosensor; Log [Compound] (M) -12.8861
Sequence (P21554 whole entry): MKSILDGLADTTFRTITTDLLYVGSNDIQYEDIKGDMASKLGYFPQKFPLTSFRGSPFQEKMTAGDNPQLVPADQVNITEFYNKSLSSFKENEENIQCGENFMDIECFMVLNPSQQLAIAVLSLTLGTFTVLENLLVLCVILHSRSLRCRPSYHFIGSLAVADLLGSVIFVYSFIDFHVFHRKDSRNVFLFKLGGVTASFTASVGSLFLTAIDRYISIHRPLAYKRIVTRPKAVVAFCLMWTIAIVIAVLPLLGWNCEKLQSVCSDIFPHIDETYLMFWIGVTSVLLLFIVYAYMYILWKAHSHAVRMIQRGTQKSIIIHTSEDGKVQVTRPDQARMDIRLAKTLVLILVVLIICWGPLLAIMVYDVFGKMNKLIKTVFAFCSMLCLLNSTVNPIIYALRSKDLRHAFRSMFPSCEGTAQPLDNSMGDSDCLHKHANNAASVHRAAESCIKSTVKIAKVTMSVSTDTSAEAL
Reply with the value as a number alone.

Brc1cc2c(cc1Cc1noc(-c3cnn(CC4CC4)c3)n1)OCO2    -20.4371
Cc1c(C(=O)OCC2CSc3ccccc3O2)cnn1Cc1ccccc1 (stereo not drawn)    -43.4104
Cc1nc(CC2CC2)oc1-c1nc(Cc2cc3c(cc2Br)OCO3)no1    -24.5851
Cn1nc(-c2nnc(C(C)(C)Oc3ccc(Cl)cc3)o2)c2ccccc2c1=O    -37.0289
Cc1nn(Cc2ccc(Cl)cc2)c(C)c1C(=O)OCC1CSc2ccccc2O1 (stereo not drawn)    -18.5227

Could you now look at the following molecule, please?
The recorded Barr2+GRK2 hCB1 response for Cn1nc(-c2nnc(C(C)(C)Oc3ccc(C(F)(F)F)cc3)o2)c2ccccc2c1=O is -33.2

Data provenance is paper PMC11882969.
